- experimental_target: PI3Kβ (Homo sapiens)
- Sequence (P42338 whole entry, species assumed): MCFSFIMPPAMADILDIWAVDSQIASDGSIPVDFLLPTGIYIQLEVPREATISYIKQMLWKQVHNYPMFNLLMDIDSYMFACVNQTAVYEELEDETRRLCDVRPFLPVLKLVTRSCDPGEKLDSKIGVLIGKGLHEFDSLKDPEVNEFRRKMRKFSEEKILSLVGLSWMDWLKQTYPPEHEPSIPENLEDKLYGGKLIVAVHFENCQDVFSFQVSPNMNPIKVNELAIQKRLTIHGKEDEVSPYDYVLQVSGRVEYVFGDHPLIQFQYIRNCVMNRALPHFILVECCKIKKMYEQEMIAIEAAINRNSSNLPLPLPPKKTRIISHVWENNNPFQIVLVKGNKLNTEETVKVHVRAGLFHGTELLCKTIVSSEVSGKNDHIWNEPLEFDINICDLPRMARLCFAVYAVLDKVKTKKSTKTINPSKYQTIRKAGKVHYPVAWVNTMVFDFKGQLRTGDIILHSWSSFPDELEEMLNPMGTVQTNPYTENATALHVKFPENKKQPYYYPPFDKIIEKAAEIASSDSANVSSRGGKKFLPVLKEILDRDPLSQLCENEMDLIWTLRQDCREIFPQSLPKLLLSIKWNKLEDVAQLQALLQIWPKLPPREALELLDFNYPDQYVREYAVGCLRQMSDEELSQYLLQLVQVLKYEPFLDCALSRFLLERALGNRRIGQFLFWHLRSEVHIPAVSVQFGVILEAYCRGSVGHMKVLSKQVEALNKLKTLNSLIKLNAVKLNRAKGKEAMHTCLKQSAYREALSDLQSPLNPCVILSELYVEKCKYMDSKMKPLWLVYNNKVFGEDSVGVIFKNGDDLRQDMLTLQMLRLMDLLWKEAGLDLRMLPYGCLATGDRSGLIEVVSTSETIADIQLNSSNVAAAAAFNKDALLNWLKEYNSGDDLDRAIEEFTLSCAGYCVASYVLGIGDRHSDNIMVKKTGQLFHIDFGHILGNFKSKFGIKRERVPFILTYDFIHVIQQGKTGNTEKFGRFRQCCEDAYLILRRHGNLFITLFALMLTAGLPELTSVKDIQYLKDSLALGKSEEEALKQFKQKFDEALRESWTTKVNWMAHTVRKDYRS
- Sequence (P27986 whole entry partner, species assumed): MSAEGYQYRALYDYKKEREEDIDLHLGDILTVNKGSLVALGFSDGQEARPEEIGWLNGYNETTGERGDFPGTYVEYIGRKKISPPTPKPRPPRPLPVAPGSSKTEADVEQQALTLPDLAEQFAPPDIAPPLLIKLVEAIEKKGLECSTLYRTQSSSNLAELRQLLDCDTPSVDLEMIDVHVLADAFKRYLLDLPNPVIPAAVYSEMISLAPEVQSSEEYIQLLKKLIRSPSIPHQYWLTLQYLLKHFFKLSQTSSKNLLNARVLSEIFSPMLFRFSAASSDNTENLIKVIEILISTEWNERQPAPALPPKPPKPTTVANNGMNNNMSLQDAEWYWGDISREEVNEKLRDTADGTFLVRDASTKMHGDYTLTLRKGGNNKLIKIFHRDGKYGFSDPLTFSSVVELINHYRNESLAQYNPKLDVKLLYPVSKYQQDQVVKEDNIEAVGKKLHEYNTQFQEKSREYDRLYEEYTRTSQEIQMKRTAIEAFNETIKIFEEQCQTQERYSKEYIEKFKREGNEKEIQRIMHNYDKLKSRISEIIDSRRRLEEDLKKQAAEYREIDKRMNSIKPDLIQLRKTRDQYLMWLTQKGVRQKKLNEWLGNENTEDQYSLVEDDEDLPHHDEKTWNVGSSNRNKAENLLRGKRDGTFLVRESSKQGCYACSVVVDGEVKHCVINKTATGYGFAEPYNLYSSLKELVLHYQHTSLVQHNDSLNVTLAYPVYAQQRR
- assay_name: In vitro inhibition of PI3Kβ
- Assay type: biochemical
- condition: Table 14; read-out: IC50 (nM) PI3Kβ
experimental_readout: IC50 (nM)

// below: answered compounds
[[record]]
input_smiles = "O=C(NOCCOCCOCCOCCN(CCO)c1nc(N2CCOCC2)nc(-n2c(C(F)F)nc3ccccc32)n1)c1ccc(F)c(F)c1Nc1ccc(I)cc1F"
recorded_measurement = 3880

[[record]]
input_smiles = "NOCCOCCOCCOCCNc1nc(N2CCOCC2)nc(-n2c(C(F)F)nc3ccccc32)n1"
recorded_measurement = 1870

[[record]]
input_smiles = "OCCN(CCO)c1nc(N2CCOCC2)nc(-n2c(C(F)F)nc3ccccc32)n1"
recorded_measurement = 74

[[record]]
input_smiles = "O=C(NOCCOCCOCCOCCNc1nc(N2CCOCC2)nc(-n2c(C(F)F)nc3ccccc32)n1)c1ccc(F)c(F)c1Nc1ccc(F)cc1F"
recorded_measurement = 1540

[[record]]
input_smiles = "COCCN(CCO)c1nc(N2CCOCC2)nc(-n2c(C(F)F)nc3ccccc32)n1"
recorded_measurement = 136


P. CC(=O)N(C)CCNc1nc(N2CCOCC2)nc(-n2c(C(F)F)nc3ccccc32)n1
Q. CN(C)CCN(CCO)c1nc(N2CCOCC2)nc(-n2c(C(F)F)nc3ccccc32)n1
Pick one: P or Q . Which one has the lower reported IC50? In your reply, give the label of the chosen option.
P
